Test summary: NCI Yeast Anticancer Drug Screen. Data for the mlh1 rad18 strain (AID 175)
Assay conditions: S. cerevisiae mlh1 rad18 strain growth inhibition; at 50.0 µM; hits give high values
The panel holds about 79,000 compounds, 15% with a hit somewhere; the sample as a whole holds those more often. Active and inactive are the calls of the source. Rule as the data show it: active = growth inhibition above about 70%; inactive = the rest.
Provide the recorded growth inhibition for the entries that follow.

Recorded growth inhibition for CC/C(C)=C1\OC(=O)C(C)C(O)C(Cc2cccnc2)NC(=O)C(NC(=O)c2ncccc2O)C(C)OC1=O (stereo not given) , please?
-14.9% (inactive)

Recorded growth inhibition for CCC(=O)Oc1ccc(OCc2ccccc2)cc1 , please?
-25.9% (inactive)

Recorded growth inhibition for Fc1c(F)c(F)c(-c2nnc(-c3c(F)c(F)c(F)c(F)c3F)o2)c(F)c1F , please?
4.25% (inactive)

Recorded growth inhibition for Cc1cc(Cl)c2c(c1)C(=O)C(C)C2.[Cu+2] (stereo not given) , please?
-6.2% (inactive)

Recorded growth inhibition for COc1ccc(Cc2ccc(OC)c3ccccc23)c2ccccc12 , please?
-5.25% (inactive)

Recorded growth inhibition for COc1ccc(NC(=S)c2ccoc2C)cc1CC(=O)OC(C)C , please?
-18.7% (inactive)

Recorded growth inhibition for CC1c2c(cc(=O)n(Cc3ccccc3)c2O)C(=O)N1Cc1ccccc1 (stereo not given) , please?
8.85% (inactive)

Recorded growth inhibition for Cc1cc(N=Nc2ccc(N(C)C)cc2)ccn1 , please?
0.9% (inactive)

Recorded growth inhibition for CC1CN(CCCOC(=O)Nc2cccc3ccccc23)CCN1Cc1ccccc1 (stereo not given) , please?
95.8% (active)

Recorded growth inhibition for O=C1CSc2ccnc(=O)n21 , please?
-8.1% (inactive)

Recorded growth inhibition for C/C=C(/C(=O)NC(N)=O)C(C)C , please?
-2.85% (inactive)

Recorded growth inhibition for CC(C#N)c1cn(S(=O)(=O)c2ccccc2)c2ccccc12 (stereo not given) , please?
37% (inactive)

Recorded growth inhibition for C=C1C(=O)OC2/C=C(\C)CC/C=C(/C=O)C(OC(=O)C(C)C)C(O)C12 (stereo not given) , please?
-31.6% (inactive)

Recorded growth inhibition for CC(C)(C)[Si](C)(C)OCC1OC(n2cnc3c(N)ncnc32)C(O)C1O (stereo not given) , please?
-2.35% (inactive)

Recorded growth inhibition for COc1ccccc1C1CCCCC1SCC(=O)O (stereo not given) , please?
-18.4% (inactive)

Values compiled from PubChem BioAssay (NCI).
